Target: Cathepsin K (Homo sapiens, UniProt P43235)
Sequence (P43235 whole entry): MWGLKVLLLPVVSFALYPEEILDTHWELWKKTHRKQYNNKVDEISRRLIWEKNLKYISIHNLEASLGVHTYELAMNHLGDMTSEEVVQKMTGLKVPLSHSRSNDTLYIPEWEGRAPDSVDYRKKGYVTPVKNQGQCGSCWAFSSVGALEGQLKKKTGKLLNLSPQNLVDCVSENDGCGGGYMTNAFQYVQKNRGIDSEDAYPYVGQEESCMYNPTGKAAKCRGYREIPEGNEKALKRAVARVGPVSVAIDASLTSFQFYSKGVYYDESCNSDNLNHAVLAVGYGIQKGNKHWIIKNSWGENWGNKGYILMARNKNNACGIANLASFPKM
Experiment: Inhibitory concentration against recombinant human cathepsin K by using Z-Phe-Arg-AMC as synthetic substrate
pIC50: −log10 of the molar value.
Label met when pIC50 is at or above 8; anything below gets not met.

> print(dat)
                  compound.structure.string      cat
1  N#Cc1nc(Nc2ccccc2OCCCn2ccnc2)c2ncn(C3CCCC3)c2n1      met
2  CN1CCN(CCOc2ccc(COc3ccccc3Nc3nc(C#N)nc4c3ncn4C3CCCC3)cc2)CC1  not met

* * *

Molecular target: Cathepsin S (Homo sapiens)
Sequence (P25774 whole entry): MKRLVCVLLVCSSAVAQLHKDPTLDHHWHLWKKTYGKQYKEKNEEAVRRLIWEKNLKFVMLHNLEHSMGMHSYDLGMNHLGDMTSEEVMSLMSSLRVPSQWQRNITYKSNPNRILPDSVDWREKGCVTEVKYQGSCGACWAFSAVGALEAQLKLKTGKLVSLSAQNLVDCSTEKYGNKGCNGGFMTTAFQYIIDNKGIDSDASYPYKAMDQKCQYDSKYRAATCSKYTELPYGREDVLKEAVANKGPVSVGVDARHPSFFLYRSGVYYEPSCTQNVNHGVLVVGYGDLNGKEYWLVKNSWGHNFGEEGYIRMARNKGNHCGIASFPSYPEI
Assay: Inhibitory concentration against recombinant human cathepsin S by using Z-Leu-Leu-Arg-AMC as synthetic substrate
reported_metric: IC50 (nM)

> print(dat)
                  compound.structure.string  reported.metric  result
1   COCCN(C)CCn1cnc2c(NC3CCCCC3)nc(C#N)nc21             IC50     200
2  CN1CCN(CCOc2ccc(COc3ccccc3Nc3nc(C#N)nc4c3ncn4C3CCCC3)cc2)CC1             IC50      50
3  COCCNCCOc1ccc(COc2ccccc2Nc2nc(C#N)nc3c2ncn3C2CCCC2)cc1             IC50      71
4  N#Cc1nc(Nc2ccccc2OCCCn2ccnc2)c2ncn(C3CCCC3)c2n1             IC50     210
5  CN1CCN(CCn2cnc3c(NC4CCCCC4)nc(C#N)nc32)CC1             IC50     150
6  N#Cc1nc(NC2CCCCC2)c2ncn([C@@H]3O[C@H](O)[C@@H](O)[C@H]3O)c2n1             IC50     340
